Test system: NCI-H23 lung
assay.overview: NCI-60 one-dose screen, 48 h
test.conditions: 10 µM unless noted
Procedure: Growth inhibition of the NCI-H23 human Non-Small Cell Lung tumor cell line is measured as a screen for anti-cancer activity. Cells are grown in 96 well plates and exposed to the test compound for 48 hours. Compounds are tested at a single concentration, which is 10^-5 M for most compounds. The reported endpoint is percent growth (GI% or GIPRCNT), where numbers from 0 - 100% represent growth inhibition, and numbers from -100% - 0 represent cell death. […]
This is part of a sample that, as a whole, favours compounds with a hit. Of some 83,000 tested, about 20% had one in any assay. Calls of active or inactive are those of the source. The calls were made as follows: active = growth percent below 10; inactive = the rest.
# valid calls are true (1) (active), false (0) (inactive); nothing else

Please state the recorded outcome for this compound: COc1ccc2nc(-c3ccc(Cl)cc3)cc(-c3nnc(SCC(=O)Nc4ccc(C(C)=O)cc4)n3-c3ccccc3)c2c1
false (0)

N#Cc1c(-c2ccccc2)cc(-c2ccccc2)n(CCC(=O)O)c1=O , same question.
false (0)

C[C@H]1O[C@@H](O[C@H]2[C@@H](O)C[C@H](O[C@H]3[C@@H](O)C[C@H](O[C@H]4CC[C@]5(C)C6CC[C@]7(C)[C@@H](C8=CC(=O)OC8)CC[C@]7(O)C6CC[C@@H]5C4)O[C@@H]3C)O[C@@H]2C)C[C@H](O)[C@@H]1O (stereo partly specified) , same question.
true (1)

COc1cc(/C=C/C(=O)CC(=O)/C=C/c2ccc(OC(=O)C3C4CC5CC(C4)CC3C5)c(OC)c2)ccc1OC(=O)C1C2CC3CC(C2)CC1C3 (stereo unspecified) , same question.
false (0)

O=C(Nc1ccccc1)P(=O)(O)c1ccccc1 , same question.
false (0)

C[C@@H]1[C@H]2[C@H](C=C3[C@@H]4CC[C@H]5Cc6nc7c(nc6C[C@]5(C)[C@H]4C[C@@H](O)[C@@]32C)C[C@@H]2CC[C@H]3C4=C[C@@H]5O[C@@]6(CC[C@](C)(CO)O6)[C@@H](C)[C@@]5(O)[C@@]4(C)[C@H](O)C[C@@H]3[C@@]2(C)C7)O[C@]12CCC(C)(C)O2 , same question.
false (0)

* * *

Exercise: state measured growth for each of the compounds provided.
Tested on: U251 CNS
assay.overview: NCI-60 one-dose screen, 48 h (100 = growth as untreated, 0 = no growth, -100 = all killed)
test.conditions: 10 µM unless noted
Compounds without any hit were thinned out: in the full panel of roughly 83,000, 20% have a hit.
Write it as a number; the unit % goes unstated.

Given the entry O=C1NC(=O)/C(=C/c2ccc(Cl)cc2Cl)N1 , report its measured growth.
102

O=C(COc1ccc(/C=C2\Cc3ccccc3C2=O)cc1)c1ccc(Cl)cc1 , same question.
93.7

O=C(O)C1C(c2ccccc2)c2ccccc2C(O)C1CO (stereo not given) , same question.
105

C(=C1c2ccccc2-c2ccccc21)c1ccccn1 , same question.
50.4

CCc1ccc(-c2nc(SCC(=O)NC3CCCCC3)n[nH]2)cc1 , same question.
89.3

CCC(=O)Nc1cc2c(cc1Cl)-c1ccccc1C2 , same question.
96.4

COc1cnc2c(c1)C(=O)c1c-2n(CCCNC2=NCCS2)c(=O)c2cc(F)ccc12 , same question.
12.1

N#Cc1c(-c2ccc(F)cc2)n2c(nc1=O)SC(=O)C2=O , same question.
92.2

CC1CN(CC(O)c2ccc(Br)cc2)CCO1 (stereo not given) , same question.
95.8

COC(=O)N/N=C/c1coc2ccc(Cl)cc2c1=O , same question.
96.7

N#CC(C#N)C(C#N)C#N , same question.
93.6

N#Cc1c(-c2ccccc2)cc(-c2ccccc2)n(CCCCC(=O)O)c1=O , same question.
93.3

COc1ccc(Cl)cc1Nc1nc(C(F)(F)F)ccc1C(=O)N/N=C/c1c(Cl)cccc1Cl , same question.
29.1

COc1ccc(-c2cc(-c3nnc(SCC(=O)Nc4ccc(C(C)=O)cc4)n3-c3ccccc3)c3ccccc3n2)cc1OC , same question.
101

O=C(Nc1ccc2c(c1)C(=O)c1ccccc1-2)c1ccccc1 , same question.
-13.9

* * *

Test system: CCRF-CEM leukemia
assay.overview: NCI-60 one-dose screen, 48 h (100 = growth as untreated, 0 = no growth, -100 = all killed)
test.conditions: 10 µM unless noted
This is part of a sample that, as a whole, favours compounds with a hit. Of some 83,000 tested, about 20% had one in any assay.
measurement.type: growth (%)
Write it as a number; the unit % goes unstated.

Given the entry CCSc1nc(-c2ccc(F)cc2)c(C#N)c(=O)[nH]1 , report its measured growth.
102

COCCCNS(=O)(=O)c1ncnc2nc[nH]c12 , same question.
101

C[C@H](C(=O)N[C@@H](Cc1ccc(-c2ccccc2)cc1)C(=O)NC1CC(C)(C)NC(C)(C)C1)c1ccc(-c2ccccc2)c(F)c1 , same question.
-20.9

CSc1nc(Nc2ccc(S(=O)(=O)Nc3ccon3)cc2)c(C#N)c(-c2ccc(Cl)cc2)n1 , same question.
6.79

COc1ccc(Cl)cc1Nc1nc(C(F)(F)F)ccc1C(=O)N/N=C/c1c(Cl)cccc1Cl , same question.
13.8

CO[C@H]1/C=C/O[C@@]2(C)Oc3c(C)c(O)c4c(O)c(c(/C=N/N5C(C)CN(Cc6ccc(C#N)cc6)CC5C)c(O)c4c3C2=O)NC(=O)/C(C)=C\C=C\[C@H](C)[C@H](O)[C@@H](C)[C@@H](O)[C@@H](C)[C@H](OC(C)=O)[C@@H]1C (some centres undefined) , same question.
12.1

COc1ccc(NC(=O)[C@@H]2C[C@H]2c2ccccc2)c(C(N)=O)c1 , same question.
94

N/C(=N\C(N)=N\c1nc2ccccc2s1)c1ccnc(Cl)c1 , same question.
19.2

O=Nc1c2cccnc2n2nnc3ccc(Cl)cc3c12 , same question.
-60.5

COc1cc(/C=C/C(=O)c2c(C)n([O-])c3ccc(Cl)cc3[n+]2=O)cc(OC)c1OC , same question.
-34.2

CCCCCN1C(=O)CCC1=O , same question.
-52.3

O=C(Nc1nc2ccc(OC(F)(F)F)cc2s1)c1ccc(F)cc1 , same question.
32.1

CCN(CC)c1ccc(C(=C2C=CC(=[N+](CC)Cc3cccc(S(=O)(=O)O)c3)C=C2)c2ccc(N(CC)Cc3cccc(S(=O)(=O)O)c3)cc2)cc1 , same question.
12.4

COc1ccc(C(=O)COc2cccc(/C=C3\CSc4ccc(Cl)cc4C3=O)c2)cc1 , same question.
-21.3

c1ccc2nc(Cn3c[n+](Cc4ccc5ccccc5n4)c4ccccc43)ccc2c1 , same question.
34.9

COc1ccc(C(=O)COc2ccc(/C=C3\Oc4ccc5ccccc5c4C3=O)cc2)cc1 , same question.
-21.9

NS(=O)(=O)c1cc(C2(O)NC(=O)c3ccccc32)ccc1Cl (centres undefined) , same question.
98.9

COc1ccc2nc(NC(=O)CN3CCn4c(nnc4C(F)(F)F)C3)sc2c1 , same question.
86.5

CSc1nc(-c2ccc(O)cc2O)c2c(=O)[nH]c(Nc3ccc(S(=O)(=O)Nc4nc(C)cc(C)n4)cc3)nc2n1 , same question.
103

CCOC(=O)c1sc(NC(=O)COc2ccc(/C=C3\CCc4cc(OC)ccc4C3=O)cc2)nc1C , same question.
-62.6

COc1cc(/C=C/C(=O)c2c(C)n([O-])c3ccccc3[n+]2=O)cc(OC)c1OC , same question.
-51.2

COc1cc(/C=C2\CN(S(=O)(=O)c3ccc(C)cc3)C/C(=C\c3cc(CN4CCOCC4)c(O)c(OC)c3)C2=O)cc(CN2CCOCC2)c1O , same question.
8.78

C#C[C@]1(O)CCC2C3CCc4cc(O)ccc4C3CC[C@@]21C (some centres undefined) , same question.
39

COc1cnc2c(c1)C(=O)c1c-2n(CCCNC2=NCCS2)c(=O)c2cc(F)ccc12 , same question.
0.88

O=C(COc1cccc(/C=C2\Oc3ccc4ccccc4c3C2=O)c1)c1ccc([N+](=O)[O-])cc1 , same question.
35.7

O=C(/C=C/c1ccc([N+](=O)[O-])cc1)c1ccc2c3c(cccc13)CC2 , same question.
35.5

C/C(=C\CCc1ccsc1)CC/C=C(\C)CCCN1CCSCC1 , same question.
73.7

O=C1C(=O)/C(=C/c2ccccc2)CCCCCC/C1=C/c1ccccc1 , same question.
4.29

CCSc1nc(-c2cccs2)n2nc(-c3ccco3)cc2n1 , same question.
88.7

Cc1ccc(/C=C(/C#N)n2nnc3ncccc32)cc1 , same question.
9.57

O=C(Nc1ccccc1S)c1ccccc1 , same question.
106

Cc1sc2nc3c4ccccc4c(NCCCN(C)C)nn3c(=O)c2c1C , same question.
-27.9

CCOC(=O)OCC(=O)[C@@]1(O)CC[C@H]2[C@@H]3CCC4=CC(=O)CC[C@]4(C)[C@H]3[C@@H](O)C[C@@]21C , same question.
84.6

CC1C(=O)NC2=Nc3ccccc3C(=O)NN21 (centres undefined) , same question.
97.3
